From: patent EP4431526A1

Target: T1, human GPVI-Fc fusion protein (human, UniProt Q9HCN6 21-267, limits assumed)
T1 construct: also called human GPVI protein antigen
T1 sequence (looked up): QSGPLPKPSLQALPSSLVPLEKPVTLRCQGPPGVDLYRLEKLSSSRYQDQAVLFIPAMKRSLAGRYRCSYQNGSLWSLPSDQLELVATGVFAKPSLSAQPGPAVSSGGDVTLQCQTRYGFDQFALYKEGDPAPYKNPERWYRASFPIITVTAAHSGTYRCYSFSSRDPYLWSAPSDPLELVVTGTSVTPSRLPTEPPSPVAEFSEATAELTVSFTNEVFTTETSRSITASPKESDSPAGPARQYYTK
Test: BLI (Octet), GPVI-Fc on biosensor, 1:1 fit
OUTCOME_MEASURE: Kd
Reply with the number and its unit after it.

As a guide, the following entries are already answered.
- BINDER: "HC4 LC4 humanized Fab (Fab, V domains shown, also called VH4:VL4) VH: QVQLVESGGGVVQPGRSLRLSCAASGFSLTSYGVTWVRQSPGKGLEWVAVIWGDGSTNYHSGLRSRLTISRDNSKNTLYLEMNSLRTEDTATYYCAKPIYYDFDDDAMDYWGQGTKVTVSS VL: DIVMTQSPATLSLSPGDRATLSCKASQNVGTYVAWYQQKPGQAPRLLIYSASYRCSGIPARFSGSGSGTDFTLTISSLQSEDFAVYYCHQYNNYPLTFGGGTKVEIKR"
  OUTCOME_MEASURE: "Kd"
  RESULT: "572 pM"
- BINDER: "HC5 LC3 humanized Fab (Fab, V domains shown, also called VH5:VL3) VH: QVQLQESGPGLVKPSETLSLTCTVSGFSLTSYGVTWIRQPPGKGLEWIGVIWGDGSTNYHSGLRSRVTISVDTSKNQFSLKLSSVTAADTAVYYCAKPIYYDFDDDAMDYWGQGTSVTVSS VL: DIQLTQSPSTLSASVGDRVTITCKASQNVGTYVAWYQQKPGKAPKLLIYSASYRCSGVPSRFSGSGSGTEFTLTISSLQPDDFTTYYCHQYNNYPLTFGQGTKVEIKR"
  OUTCOME_MEASURE: "Kd"
  RESULT: "637 pM"

Next, consider the following binder.
Ask: Identify measured Kd corresponding to HC4 LC3 humanized Fab (Fab, V domains shown, also called VH4:VL3) VH: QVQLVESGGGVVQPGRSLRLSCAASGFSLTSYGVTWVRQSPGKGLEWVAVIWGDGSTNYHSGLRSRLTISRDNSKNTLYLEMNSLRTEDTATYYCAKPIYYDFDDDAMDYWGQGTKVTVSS VL: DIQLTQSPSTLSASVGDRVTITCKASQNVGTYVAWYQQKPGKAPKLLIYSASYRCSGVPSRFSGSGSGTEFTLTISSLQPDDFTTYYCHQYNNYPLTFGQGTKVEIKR
Result: 593 pM
